Measured fluorescence intensity of individual entries
method: compound fluorescence in toxin protease inhibitor counterscreen, primary screen, artefact control for toxin protease inhibitor project, biochemical, multiplex microsphere, HTS (AID 624483)
experimental-conditions: compound autofluorescence counterscreen, microsphere flow cytometry; stronger effect = higher value
About 11,000 (3.1%) of roughly 360,000 compounds were called active. Inconclusive results (about 2%) are left out. This excerpt belongs to a sample that is enriched for actives.
measure-name: fluorescence intensity

INSERT INTO measurements (compound, reported) VALUES
  ('CS(=O)(=O)N(CC(=O)Nc1ccc(F)cc1)C1CCCCC1', '3860 (inactive)'),
  ('Fc1ccc(/C=N/n2c(COc3ccccc3)n[nH]c2=S)cc1', '3650 (inactive)'),
  ('COc1nc(Oc2ccc(=O)n(C)n2)nc(N(C)C)n1', '2790 (inactive)'),
  ('Cc1ccc(S(=O)(=O)N2CCC(=O)N([C@H](COCc3ccccc3)C(C)C)CC2)cc1', '5310 (inactive)'),
  ('O=C(Nc1nc(-c2ccc3c(c2)OCO3)cs1)c1ccncc1', '23200 (active)'),
  ('O=C(NN=Cc1ccccc1O)C(=O)NN=Cc1ccccc1O', '3880 (inactive)'),
  ('Cc1nc(CC(=O)NNS(=O)(=O)c2ccc(F)c(Cl)c2)cs1', '2630 (inactive)'),
  ('Nc1nc2c(ncn2[C@@H]2O[C@H](CNCc3ccc(OCCCN4CCOCC4)cc3)[C@@H](O)[C@H]2O)c(=O)[nH]1', '6030 (inactive)'),
  ('CCOc1ccc(-c2n[nH]c(=S)n2/N=C/c2cc3c(cc2[N+](=O)[O-])OCO3)cc1', '7340 (inactive)'),
  ('CC(C)(C)SCCSC1=CC(=O)CC(c2ccccc2)C1 (stereo not given)', '3630 (inactive)');

---

Measured fluorescence intensity by item
method: compound fluorescence in toxin protease inhibitor counterscreen, primary screen, artefact control for toxin protease inhibitor project, biochemical, multiplex microsphere, HTS (AID 624483)
experimental-conditions: compound autofluorescence counterscreen, microsphere flow cytometry; stronger effect = higher value
Among all 360,000 compounds or so, about 11,000 (3.1%) were called active. Another 2% or so got no clear call; they are omitted. The list comes from a sample in which actives are over-represented; it also holds close analogues and randomly drawn compounds.
measure-name: fluorescence intensity

INSERT INTO measurements (compound, reported) VALUES
  ('NC(=O)CSc1nnc(NC(=O)c2ccc(Br)o2)s1', 5930),
  ('COc1ccc(NC(=O)c2sc(=O)n(Cc3ccc(S(=O)(=O)N(C)C)cc3)c2C)cc1', 5230),
  ('CCOC(=O)[C@]12CCCC=C1N(Cc1ccc3c(c1)OCO3)C(=O)[C@H](CC(=O)N1CCN(C(=O)c3ccco3)CC1)C2', 3930),
  ('Cc1ccc(CNC(=O)c2cc(-c3ccccc3C)n(CC3CC(c4cccc([N+](=O)[O-])c4)=NO3)n2)cc1 (stereo not given)', 4220),
  ('O=c1oc2ccccc2c(=O)c2ccccc12', 3730);

---

method: compound fluorescence in toxin protease inhibitor counterscreen, primary screen, artefact control for toxin protease inhibitor project, biochemical, multiplex microsphere, HTS (AID 624483)
experimental-conditions: compound autofluorescence counterscreen, microsphere flow cytometry; stronger effect = higher value
In all, about 360,000 compounds went through this assay and about 11,000 (3.1%) were called active. Roughly 2% stayed inconclusive and do not appear here. What follows is part of a selection rich in actives, with near analogues and random picks from the rest.
Catalogue of fluorescence intensity values
measure-name: fluorescence intensity

INSERT INTO measurements (compound, reported) VALUES
  ('Cc1cccc(C)c1-n1nnnc1C(CCc1ccccc1)N1CCN(C/C=C/c2ccccc2)CC1 (stereo not given)', 5940),
  ('O=C(O)CSc1nnc(-c2ccc3c(c2)OCO3)n1-c1ccccc1', 2040),
  ('CCOC(=O)[C@]12CCCC=C1N(Cc1ccc(Cl)cc1Cl)C(=O)[C@H](CC(=O)N1CCCCC1)C2', 6000),
  ('O=C(O)CCSc1nnc(-c2ccccc2)n1-c1ccccc1', 22100),
  ('COc1cc(C(=O)NCc2ccc3c(c2)cc(C)n3C)cc(OC)c1OC', 3720),
  ('CCn1c(CC(=O)Nc2ccccc2)nnc1SCC(=O)N1CCOCC1', 6500),
  ('C=CCn1c(SCc2c(C)noc2C)nc2sc3c(c2c1=O)CCC(C)C3 (stereo not given)', 2390),
  ('CC(=O)c1ccc(Nc2nc(C(N)c3ccccc3Cl)cs2)cc1 (stereo not given)', 3780),
  ('CC(C)(C)OC(=O)N1CCN(C(=O)c2[nH]c(C(F)(F)F)nc2-c2ccccc2)CC1', 5720),
  ('COc1ccc(C(N)c2csc(NC(=O)Nc3cccc(C(F)(F)F)c3)n2)cc1 (stereo not given)', 3490);

---

method: compound fluorescence in toxin protease inhibitor counterscreen, primary screen, artefact control for toxin protease inhibitor project, biochemical, multiplex microsphere, HTS (AID 624483)
experimental-conditions: compound autofluorescence counterscreen, microsphere flow cytometry
The campaign covered roughly 360,000 compounds. About 11,000 (3.1%) were called active. Inconclusive results (about 2%) are left out. Cut-off read from the data, not from the text of the source: active = fluorescence intensity above about 16000; inconclusive = no clear call, values can overlap the other calls; inactive = below that. The sample holds actives, similar compounds and a random draw of the others, so the mix is not that of the screen.
Possible outcomes: active, inactive

INSERT INTO assay_data (line_notation, class) VALUES
  ('COC(=O)C1=CN(C)C=C(C(=O)OC)C1c1ccc(Cl)cc1Cl', 'inactive'),
  ('CCCNC(=O)CN(Cc1ccccc1F)S(=O)(=O)c1ccc(C)cc1', 'active'),
  ('Cc1cc(S(=O)(=O)NCC(C)C)ccc1OCC(=O)NC1CC1', 'inactive'),
  ('CCCCN(CCCC)CCNC(=O)CN1C(=O)COc2ccc(S(=O)(=O)N3CCOCC3)cc21', 'inactive'),
  ('CC(C)CNS(=O)(=O)c1ccc(OCC(=O)Nc2ccc3c(c2)OCO3)c(Cl)c1', 'active'),
  ('CCN(CC(=O)NCCc1ccccc1)S(=O)(=O)c1ccccc1', 'inactive'),
  ('COCCNC(=O)c1cc2c(Br)ccc(Br)c2nc1N', 'inactive'),
  ('CCCCC[C@H](C)N1C[C@@H](COCc2ccccc2)Oc2cc(N3CCC[C@@H]3CO)ccc2S1(=O)=O', 'inactive'),
  ('CN1C(=O)[C@H]2[C@@H](/C=C/c3ccccc3)N3C(=O)CN(Cc4ccc(-c5ccccc5)cc4)C(=O)[C@@]3(C)[C@H]2C1=O', 'inactive'),
  ('CN1CCN(c2ccc3c(c2)OC[C@H](Cc2ccccc2)NS3(=O)=O)CC1', 'inactive');

---

method: compound fluorescence in toxin protease inhibitor counterscreen, primary screen, artefact control for toxin protease inhibitor project, biochemical, multiplex microsphere, HTS (AID 624483)
experimental-conditions: compound autofluorescence counterscreen, microsphere flow cytometry; stronger effect = higher value
Screen size: about 360,000 compounds; about 11,000 (3.1%) were called active. Roughly 2% stayed inconclusive and do not appear here. The sample holds actives, similar compounds and a random draw of the others, so the mix is not that of the screen.
measure-name: fluorescence intensity

INSERT INTO assay_data (compound, reported) VALUES
  ('COc1ccccc1OCC(=O)O/N=C(\N)c1ccccn1', '6210 (inactive)'),
  ('CN(C(=O)c1cccc(NC(=O)C2CCN(C(=O)OC(C)(C)C)CC2)c1)C1CCC1', '4250 (inactive)'),
  ('N/C(=N\OC(=O)CCC1CCCCC1)c1ccccn1', '16300 (active)'),
  ('Cc1nn(Cc2ccccc2)c(C)c1NS(=O)(=O)c1ccccc1', '5640 (inactive)'),
  ('CC1CCCCC1NC(=O)CCS(=O)(=O)c1cccc2nonc12 (stereo unspecified)', '4530 (inactive)'),
  ('CC(C)(C)Nc1c(N)c(=O)oc2ccccc12', '17700 (active)'),
  ('COc1ccc(NC(=O)CN2C(=O)COc3ccc(S(=O)(=O)N4CCOCC4)cc32)cc1', '4800 (inactive)'),
  ('CCC(C)N(C)C1CCN(C(=S)Nc2ccc(OC)cc2)CC1 (stereo unspecified)', '4340 (inactive)'),
  ('COc1ccc(NC(=S)N2N=CCC2c2ccccc2)cc1 (stereo unspecified)', '22400 (active)'),
  ('COc1ccc(NC(=S)N2CCc3cc(OC)c(OC)cc3C2)cc1', '5760 (inactive)'),
  ('COc1cccc(-c2cc3nc(NCc4ccccc4OC)n(C)c(=O)c3s2)c1', '2860 (inactive)');

---

method: compound fluorescence in toxin protease inhibitor counterscreen, primary screen, artefact control for toxin protease inhibitor project, biochemical, multiplex microsphere, HTS (AID 624483)
experimental-conditions: compound autofluorescence counterscreen, microsphere flow cytometry; stronger effect = higher value
The campaign covered roughly 360,000 compounds. About 11,000 (3.1%) were called active. Inconclusive results (about 2%) are left out. The full list was thinned out, with actives kept by preference.
Kind request: treat 5000 as inclusive, so fluorescence intensity at 5000 or higher is y, anything lower is n.

INSERT INTO assay_data (compound, class) VALUES
  ('CC(=O)Nc1ccc(S(=O)(=O)N2CCN(CCCOc3cc(C)ccc3C)CC2)cc1', 'y'),
  ('COC(=O)c1ccc2nc(-c3cccc(Br)c3)c(Cc3ccc(OC)cc3C)n2c1', 'y'),
  ('CCOC(=O)C1(C)CCCN(C(=O)c2cccc(Cl)c2)C1 (stereo unspecified)', 'n'),
  ('Cc1ccc(NC(=O)CNCc2ccccn2)cc1S(=O)(=O)N(C)C', 'n'),
  ('Cc1ccccc1OCC(=O)NCC(=O)OCC(=O)c1ccc2ccccc2c1', 'y'),
  ('Cc1ccc(SCC(=O)NC(=O)NCc2ccco2)c(C)c1', 'y'),
  ('CC(=O)Nc1cnc(-c2ccc(O)cc2C)cn1', 'n'),
  ('Cc1ccc(-c2csc3nnc(SCC(=O)NCc4ccco4)n23)cc1', 'y'),
  ('CCN(CC)S(=O)(=O)c1cc(C(=O)Nc2ccccn2)ccc1C', 'y'),
  ('Cc1ccc(NC(=O)C(=O)NCc2ccco2)c(C)c1', 'n'),
  ('CC(=O)c1cccc(-c2cnc3c(NC=O)cc(-c4ccc(N5CCN(C)CC5)cc4)cn23)c1', 'n');

Where these numbers come from: PubChem BioAssay AID624483
